Test system: DLD-1 colon
method_description: NCI tumour cell line growth inhibition, 48 h
Can you tell me TGI for the items I'm about to list?

I need TGI for every entry listed below, if you could help.
1. CCOC(=O)C(N)CSC(=O)NC (stereo not drawn)
2. COC(=O)C(=C/c1ccc(OC)cc1)/C(C(=O)O)=C(/C)c1ccccc1
3. Cc1ccc2c(c1CCCC(C)(C)O)C(=O)C(=O)C(C(C)C)=C2O

1: 474 µM; 2: > 100 µM; 3: > 100 µM

---

Can you tell me GI50 for the items I'm about to list?
Test system: SK-MEL-2 melanoma

I need GI50 for every entry listed below, if you could help.
1. C#CC(=O)Nc1cccc(Nc2nc3c(c(NCc4ccccc4)n2)CCCC3)c1
2. Nc1nc(Br)nc2c1ncn2C1CC(O)C(CO)O1 (stereo not drawn)

0.543 µM
> 100 µM

// GI50 lookup, key: COc1ccc(C2C(C#N)=C(N)OC3=C2COc2ccc(F)cc23)cc1OC (stereo not drawn)
68.7 µM

---

Tested on: UACC-62 melanoma
method_description: NCI tumour cell line growth inhibition, 48 h
Can you tell me TGI for the items I'm about to list?

COc1ccc(-c2cc(-c3cccn3C)c(C#N)c(N)n2)cc1OC : > 100 µM
Cc1cc(C)cc(C(=N)c2ccccc2Cc2cccc3ccccc23)c1 : 29 µM
CCOC(=O)C1N(S(=O)(=O)c2ccc(C)cc2)CCC12C(c1ccc(OC)cc1)NC1CCCCC12 (stereo not drawn) : > 100 µM
Cc1cn2c(/C=C3/C(=O)Nc4ccccc43)c(-c3ccc(Cl)cc3)nc2s1 : 11.5 µM
c1ccc2c3ccn4cc5c(cc4c-3nc2c1)CCCC5 : 14.4 µM
Cc1ccc(C2CC(c3ccco3)=NN2c2ccccc2)o1 (stereo not drawn) : > 100 µM
COC(=O)C(=C/c1ccc(OC)cc1)/C(C(=O)O)=C(/C)c1ccccc1 : > 100 µM
CNC(=S)N/N=C(C)\C(=N/NC(=S)NC)c1ccccc1 : > 100 µM

I need TGI for every entry listed below, if you could help.
1. CC(C)(C)N1CC2(CCCCC2)C1=O
2. N#Cc1c(-c2ccccc2)[nH]c2ccccc2c1=O
3. COc1ccc(CCNC2=CC(=O)c3ncccc3C2=O)cc1OC
4. OCCCCC#Cc1ccccc1C#Cc1cccc(O)c1
5. CC(=O)c1csc2c1C(=O)c1scc(C(C)=O)c1C2=O
6. N#CC1(C2SCCS2=O)C2=C(C(=O)c3ccccc3C2=O)N2CCCC21 (stereo not drawn)

> 100 µM
> 100 µM
1.24 µM
26.9 µM
3.56 µM
6.54 µM

I need TGI for every entry listed below, if you could help.
1. O=C(Nc1cccc(Cl)c1)c1cc2ccccc2cc1O
2. Cc1c[n+](Cc2ccc3ccccc3c2)cn1Cc1ccc2ccccc2c1
3. N#CC(/C(=N/NC(=O)C(=O)NN)C(=O)NC12CC3CC(CC(C3)C1)C2)c1ccccc1 (stereo not drawn)
4. COc1ccc2c(c1)CCc1c-2[nH]c2ccc(OC)cc12

> 100 µM
3.12 µM
> 100 µM
> 100 µM

I need TGI for every entry listed below, if you could help.
1. O=c1c(-c2ccccc2)c(SCCCN2CCN(c3cccc(Cl)c3)CC2)n(-c2ccccc2)c(=S)n1-c1ccccc1
2. O=C(CCC/C(CC(=O)c1ccc(Br)cc1)=N\O)Nc1ccccc1
3. N#CC(C(=O)/C(=N/Nc1nc(=S)[nH]n1N)C(C#N)c1ccccc1)c1ccccc1 (stereo not drawn)
4. CCN(CC)CCNCC(=O)Oc1ccc(/C=C/C(=O)CC(=O)/C=C/c2ccc(OC(=O)CNCCN(CC)CC)c(OC)c2)cc1OC
5. CCCS(=O)(=O)Nc1ccc(Nc2c3ccccc3nc3ccccc23)c(OC)c1

["> 100 µM", "> 100 µM", "> 100 µM", "7.8 µM", "13.1 µM"]

I need TGI for every entry listed below, if you could help.
1. CCOC(=O)C1=C(C)N(N)C(=S)NC1c1ccc(C)cc1 (stereo not drawn)
2. COn1cc(C=O)c2ccccc21
3. CC1(C)OCC2OC3(c4nc(C#N)c(N)o4)OC(C)(C)OC3C2O1 (stereo not drawn)
4. COC(=O)c1ccc(/C=C2\N=C(C)OC2=O)cc1
5. Nc1nc(Nc2ccccc2)c2ncn(Cc3cc4c(cc3Br)OCO4)c2n1

1. > 100 µM
2. > 100 µM
3. > 100 µM
4. > 100 µM
5. 28.4 µM
